Substrate: Cc1cc(=O)oc2cc(O[C@@H]3OC[C@@H](O)[C@H](O)[C@H]3O)ccc12
Experiment: galactosyltransferase assay, HPLC-UV
Assay type: biochemical, Homo sapiens
Conditions: apparent, fixed 1 mM UDP-Gal, 10 mM MnCl2, 100 mM sodium cacodylate pH 7.0, 37 °C
Entries and their kcat/Km
Please state the figure in M⁻¹ s⁻¹; there is no need to write the unit.

PROTEIN	kcat/Km, M⁻¹ s⁻¹
hβ4GalT7 (GST-β4GalT7) (Homo sapiens) (protein, truncated soluble form lacking the first 60 N-terminal amino acids (transmembrane domain and part of stem), GST fusion (tag kept), pET-41a(+), E. coli BL21(DE3), glutathione-Sepharose purified) VRGQGQETSGPPRACPPEPPPEHWEEDASWGPHRLAVLVPFRERFEELLVFVPHMRRFLSRKKIRHHIYVLNQVDHFRFNRAALINVGFLESSNSTDYIAMHDVDLLPLNEELDYGFPEAGPFHVASPELHPLYHYKTYVGGILLLSKQHYRLCNGMSNRFWGWGREDDEFYRRIKGAGLQLFRPSGITTGYKTFRHLHDPAWRKRDQKRIAAQKQEQFKVDREGGLNTVKYHVASRTALSVGGAPCTVLNIMLDCDKTATPWCTFS	4170

Pending protein:
Ask: // kcat/Km lookup, key: hβ4GalT7 (GST-β4GalT7) (Homo sapiens; R226A) (protein, truncated soluble form lacking the first 60 N-terminal amino acids (transmembrane domain and part of stem), GST fusion (tag kept), pET-41a(+), E. coli BL21(DE3), glutathione-Sepharose purified) VRGQGQETSGPPRACPPEPPPEHWEEDASWGPHRLAVLVPFRERFEELLVFVPHMRRFLSRKKIRHHIYVLNQVDHFRFNRAALINVGFLESSNSTDYIAMHDVDLLPLNEELDYGFPEAGPFHVASPELHPLYHYKTYVGGILLLSKQHYRLCNGMSNRFWGWGAEDDEFYRRIKGAGLQLFRPSGITTGYKTFRHLHDPAWRKRDQKRIAAQKQEQFKVDREGGLNTVKYHVASRTALSVGGAPCTVLNIMLDCDKTATPWCTFS
Result: 1870
